For each record, write down the corresponding Activity.
tested on: PC-12; assay: Recovery of NAD+ in hydrogen peroxide treated PC12 cells at 1 uM relative to control; type: functional, Rattus norvegicus
Quick reminder: number only, in %, skip the unit.

In: Can you look up the measured Activity of `CCCCC(=O)NCc1nc(-c2ccc3[nH]c4c5c(c6c(c4c3c2)C(=O)NC6=O)CCC5)cs1` for me?
Out: 15

In: Can you look up the measured Activity of `Nc1nc(-c2ccc3[nH]c4c5c(c6c(c4c3c2)C(=O)NC6=O)CCC5)cs1` for me?
Out: 48

In: Can you look up the measured Activity of `NCc1ccc2[nH]c3c4c(c5c(c3c2c1)C(=O)NC5=O)CCC4` for me?
Out: 84

In: Can you look up the measured Activity of `Cc1nc(-c2ccc3[nH]c4c5c(c6c(c4c3c2)C(=O)NC6=O)CCC5)cs1` for me?
Out: 19

In: Can you look up the measured Activity of `N=C(N)Nc1nc(-c2ccc3[nH]c4c5c(c6c(c4c3c2)C(=O)NC6=O)CCC5)cs1` for me?
Out: 19

In: Can you look up the measured Activity of `CC(C)(C)OC(=O)Cc1nc(-c2ccc3[nH]c4c5c(c6c(c4c3c2)C(=O)NC6=O)CCC5)cs1` for me?
Out: 20

In: Can you look up the measured Activity of `Cc1sc(N)nc1-c1ccc2[nH]c3c4c(c5c(c3c2c1)C(=O)NC5=O)CCC4` for me?
Out: 37

In: Can you look up the measured Activity of `O=C1NC(=O)c2c1c1c(c3[nH]c4ccc(-c5csc(CNC(=O)C6CCCC6)n5)cc4c23)CCC1` for me?
Out: 21

In: Can you look up the measured Activity of `CS(=O)(=O)Cc1nc(-c2ccc3[nH]c4c5c(c6c(c4c3c2)C(=O)NC6=O)CCC5)cs1` for me?
Out: 16

In: Can you look up the measured Activity of `CCC(=O)NCc1nc(-c2ccc3[nH]c4c5c(c6c(c4c3c2)C(=O)NC6=O)CCC5)cs1` for me?
Out: 16

In: Can you look up the measured Activity of `CC(C)CC(=O)NCc1nc(-c2ccc3[nH]c4c5c(c6c(c4c3c2)C(=O)NC6=O)CCC5)cs1` for me?
Out: 13

In: Can you look up the measured Activity of `CS(=O)(=O)NCc1nc(-c2ccc3[nH]c4c5c(c6c(c4c3c2)C(=O)NC6=O)CCC5)cs1` for me?
Out: 22

In: Can you look up the measured Activity of CC(C)(C)OC(=O)NC(CCCc1nc(-c2ccc3[nH]c4c5c(c6c(c4c3c2)C(=O)NC6=O)CCC5)cs1)C(=O)OC(C)(C)C (stereo not drawn) for me?
Out: 17

Hello, the source for this data is ChEMBL document CHEMBL1138399, in case you need it.
